The reported numbers originate from the supplement of paper PMC10567573.

B1: KIAA1161 (parent)
chain: FMPAMQFSIPPWRYDAEVVAIAQK

Variants of: B1
Assay: protein stability index of a GFP-peptide fusion (GPS, HEK-293T) (PSI 1-6); higher = more stable;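 note: lentivirally expressed fusions sorted by FACS into six bins by GFP to DsRed ratio, PSI derived from sequencing read proportions per bin multiplied by bin number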
Settings: c terminus: a fixed tail appended
Rule: criterion met for protein stability index not less than 2, criterion not met for anything less.

Answered cases to consult:
FMPAMQFSIPPWRYDAEVVAIHQK
criterion not met
FMPAMQCSIPPWRYDAEVVAIAQK
criterion met
FMPAMQFSIPPWRYDAEVVAIAQQ
criterion not met
FMPAMQFSIPPWRFDAEVVAIAQK
criterion not met
FMPANQFSIPPWRYDAEVVAIAQK
criterion not met
DMPAMQFSIPPWRYDAEVVAIAQK
criterion met
FMPAMQFSIHPWRYDAEVVAIAQK
criterion not met
FMPAMQFSIYPWRYDAEVVAIAQK
criterion met
FMPAMQFSIPPWRYDAEVVAIAQR
criterion not met
FMPAMQFSILPWRYDAEVVAIAQK
criterion met

Kindly review the next variant as well.
Request: Check this variant for protein stability index at or above 2: FMPAMQFSIPPWRYDAEVVADAQK
Result: criterion met
